- Tested on: morningglory
- test description: Test A postemergence
- Type: in vivo, Ipomoea spp.
- setup conditions: Postemergence, 500 g ai/ha; 0 to 100 scale (0 no effect, 100 complete control)
- Description: […]
Measured Morningglory plant response rating, listed per entry for reference.

// query # query: Morningglory plant response rating of entry CCCCc1cc(C(=O)NC2CC2)nn1Cc1ccnc(C(F)(F)F)c1
// result 90

// query Recorded Morningglory plant response rating of CCCCc1cc(C(=O)NCC(F)(F)F)nn1Cc1ccnc(C(F)(F)F)c1 , please.
// result 90

// query Any idea what its Morningglory plant response rating is? The compound is CCCc1cc(C(=O)Nc2ccc(F)cc2)nn1Cc1cc(C(F)(F)F)nn1C
// result 30

// query # lookup: Morningglory plant response rating of CCNC(=O)c1cc(CCCl)n(Cc2ccnc(C(F)(F)F)c2)n1
// result 100

// moving on: another record for Morningglory plant response rating
// query Look up Morningglory plant response rating: CCCNC(=O)c1cc(I)n(Cc2cccc(C(F)(F)F)c2)n1
// result 90
